assay: Stress experiments (physical stability under temperature, humidity, grinding; XRPD after stress); assay type: physicochemical; conditions: 60° C./23% RH, 28 d; micronized; Karl Fischer water
Listing of recorded KF Result after stress by entry.
Give the value in % but do not write % after it.

| molecule | numeric readout |
| --- | --- |
| COC(=O)[C@]12CCC(C)(C)C[C@H]1[C@H]1C(=O)C=C3[C@@]4(C)C=C(C#N)C(=O)C(C)(C)[C@@H]4CC[C@@]3(C)[C@]1(C)CC2 [FORM B PRODUCED BY ISOLATION FROM ETHYL ACETATE AND ETHANOL ] | 0.02 |

// below: KF Result after stress requested for another molecule
Form field: reported KF Result after stress of COC(=O)[C@]12CCC(C)(C)C[C@H]1[C@H]1C(=O)C=C3[C@@]4(C)C=C(C#N)C(=O)C(C)(C)[C@@H]4CC[C@@]3(C)[C@]1(C)CC2 [FORM B PRODUCED VIA EXAMPLE 11 PROCEDURE] 0.04
